// reported IC50 for each item listed
Tested on: CPT-K5 (camptothecin-resistant variant of RPMI 8402)
Protocol: Test B. MTT cytotoxicity assay, CPT-K5
Type: cell-based, human
Setup conditions: Homo sapiens, CPT-K5, 96 h, read-out: Cytotoxicity IC50 CPT-K5
Protocol: Test B. Cytotoxic Assays (Cancer Cell Lines and Efflux Transporter Cell Lines) The cytotoxicity was determined using the MTT-microtiter plate tetrazolinium cytotoxicity assay (MTA). The human lymphoblast RPMI 8402 and its camptothecin-resistant variant cell line, CPT-K5 was provided by Dr. Toshiwo Andoh (Aichi Cancer Center Research Institute, Nagoya, Japan). […]
Give your result in nM as a bare value.

[
  {
    "Compound": "COc1cc2c(C(=O)NCCN(C)C)cc3c4cc5c(cc4ncc3c2cc1OC)OCO5 [Compound 206, reference compound]",
    "Test system": "CPT-K5 (camptothecin-resistant variant of RPMI 8402)",
    "Numeric value": 1000
  },
  {
    "Compound": "COc1cc2c(C(=O)NCCCC(C)(C)N(C)C)cc3c4cc5c(cc4ncc3c2cc1OC)OCO5 [Compound 43]",
    "Test system": "CPT-K5 (camptothecin-resistant variant of RPMI 8402)",
    "Numeric value": 3000
  }
]

Turning to the following compound.
// recorded IC50 for COc1cc2cc(C(=O)NCC(C)(C)N(C)C)c3c4cc5c(cc4ncc3c2cc1OC)OCO5 [Compound 34] : 500
